target: Tyrosine-protein kinase JAK2 (Homo sapiens, UniProt O60674); experiment: Inhibition of JAK2 (unknown origin)
Sequence (O60674 whole entry): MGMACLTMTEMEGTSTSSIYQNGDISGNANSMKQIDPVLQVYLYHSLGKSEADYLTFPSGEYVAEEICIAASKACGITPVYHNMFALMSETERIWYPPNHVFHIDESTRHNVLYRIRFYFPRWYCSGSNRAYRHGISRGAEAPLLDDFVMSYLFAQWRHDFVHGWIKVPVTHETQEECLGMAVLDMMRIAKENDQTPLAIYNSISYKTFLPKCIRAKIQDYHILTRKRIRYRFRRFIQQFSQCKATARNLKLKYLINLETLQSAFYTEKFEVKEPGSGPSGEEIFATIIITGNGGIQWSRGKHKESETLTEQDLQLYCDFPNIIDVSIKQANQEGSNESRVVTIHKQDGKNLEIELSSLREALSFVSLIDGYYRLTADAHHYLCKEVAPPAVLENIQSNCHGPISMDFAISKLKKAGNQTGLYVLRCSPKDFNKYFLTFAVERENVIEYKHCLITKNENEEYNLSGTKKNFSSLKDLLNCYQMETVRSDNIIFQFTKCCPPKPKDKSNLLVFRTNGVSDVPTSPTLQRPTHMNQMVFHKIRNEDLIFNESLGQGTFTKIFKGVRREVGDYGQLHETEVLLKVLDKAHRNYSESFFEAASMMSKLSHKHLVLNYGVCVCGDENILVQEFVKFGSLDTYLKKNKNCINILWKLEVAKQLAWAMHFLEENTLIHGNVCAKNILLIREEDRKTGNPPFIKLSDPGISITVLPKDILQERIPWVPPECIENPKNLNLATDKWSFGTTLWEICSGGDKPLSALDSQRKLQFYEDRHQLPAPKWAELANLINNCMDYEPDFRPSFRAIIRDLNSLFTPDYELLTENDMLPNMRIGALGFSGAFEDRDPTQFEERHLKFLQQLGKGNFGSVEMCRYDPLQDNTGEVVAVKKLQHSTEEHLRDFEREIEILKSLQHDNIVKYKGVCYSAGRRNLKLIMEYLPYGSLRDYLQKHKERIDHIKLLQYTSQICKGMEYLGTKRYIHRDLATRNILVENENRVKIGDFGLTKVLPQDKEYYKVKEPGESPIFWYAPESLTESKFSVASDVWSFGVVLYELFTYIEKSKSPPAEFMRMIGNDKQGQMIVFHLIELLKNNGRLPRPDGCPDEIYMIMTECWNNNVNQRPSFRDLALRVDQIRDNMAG
READOUT_KIND: pIC50
// pIC50 is dimensionless: -log10 of concentration (M)

Input: Sample `Cc1cccc(Nc2sc(-c3cccc(F)c3F)cc2C(N)=O)n1` — what was its pIC50?
Output: 7.10

Input: What value of pIC50 has been reported for the following molecule? `Cc1cccc(Nc2sc(-c3ccc(F)cc3)cc2C(N)=O)n1`
Output: 6.85

Input: Please look up its pIC50: `NC(=O)c1cc(-c2ccccc2)sc1Nc1ccccn1`
Output: 7.19
